Examples of molecules with documented IC50 follow.
Target: C-X-C chemokine receptor type 4 (Homo sapiens)
Sequence (P61073 whole entry): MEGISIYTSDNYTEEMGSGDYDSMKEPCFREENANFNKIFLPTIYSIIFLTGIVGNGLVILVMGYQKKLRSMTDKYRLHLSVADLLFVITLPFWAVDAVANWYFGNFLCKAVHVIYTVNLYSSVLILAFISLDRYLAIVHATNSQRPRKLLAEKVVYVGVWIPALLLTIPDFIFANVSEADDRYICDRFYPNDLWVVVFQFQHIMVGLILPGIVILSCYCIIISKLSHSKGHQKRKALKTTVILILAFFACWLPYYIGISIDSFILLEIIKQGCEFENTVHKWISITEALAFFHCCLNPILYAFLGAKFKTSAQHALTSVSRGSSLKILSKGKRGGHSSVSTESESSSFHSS
Test: Displacement of 125I-SDF-1 from human CXCR4 expressed in HEK293 cells incubated for 1.5 hrs by Topcount analysis

molecule-smiles	IC50
CN1CCN(C(=O)c2cccc(Cn3nnc4c3C(=O)c3ccccc3C4=O)c2)CC1	> 10 µM
Cc1ccccc1Cn1nnc2c1C(=O)c1ccccc1C2=O	> 10 µM

----------
Target: Tryptophan 2,3-dioxygenase (Homo sapiens, UniProt P48775)
Sequence (P48775 whole entry): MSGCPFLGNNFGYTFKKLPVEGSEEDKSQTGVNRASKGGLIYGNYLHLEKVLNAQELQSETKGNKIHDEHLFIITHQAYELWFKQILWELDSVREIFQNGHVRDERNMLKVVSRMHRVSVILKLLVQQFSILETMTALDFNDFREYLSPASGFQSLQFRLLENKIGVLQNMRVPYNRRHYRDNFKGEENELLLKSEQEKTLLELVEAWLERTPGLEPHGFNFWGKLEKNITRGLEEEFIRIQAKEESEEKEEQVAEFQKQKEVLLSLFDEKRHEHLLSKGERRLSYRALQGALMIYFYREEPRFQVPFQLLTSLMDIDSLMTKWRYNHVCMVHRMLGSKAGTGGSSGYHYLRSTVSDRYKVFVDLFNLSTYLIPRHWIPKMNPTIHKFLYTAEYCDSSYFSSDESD
Assay: Inhibition of recombinant human TDO expressed in Escherichia coli incubated for 1 hr measured by absorbance assay
pIC50: −log10 of the molar value.
parameter-measured: pIC50

molecule-smiles	experimental-system	test-result
CCN(CC)C(=O)Cc1ccc(Cn2nnc3c2C(=O)c2ccccc2C3=O)cc1	Tryptophan 2,3-dioxygenase (Homo sapiens, UniProt P48775)	6.84
COC1CCN(C(=O)c2ccc(Cn3nnc4c3C(=O)c3ccccc3C4=O)cc2)CC1	Tryptophan 2,3-dioxygenase (Homo sapiens, UniProt P48775)	6.68
O=C1c2ccccc2C(=O)c2c1nnn2Cc1ccc(C(=O)N2CCOCC2)cc1	Tryptophan 2,3-dioxygenase (Homo sapiens, UniProt P48775)	6.94
O=C1c2ccccc2C(=O)c2c1nnn2Cc1cccc(Br)c1	Tryptophan 2,3-dioxygenase (Homo sapiens, UniProt P48775)	6.11
Cc1ccc(Cn2nnc3c2C(=O)c2ccccc2C3=O)cc1	Tryptophan 2,3-dioxygenase (Homo sapiens, UniProt P48775)	5.96
O=C1c2ccccc2C(=O)c2c1nnn2Cc1ccc(F)cc1	Tryptophan 2,3-dioxygenase (Homo sapiens, UniProt P48775)	5.13
Cc1ccccc1Cn1nnc2c1C(=O)c1ccccc1C2=O	Tryptophan 2,3-dioxygenase (Homo sapiens, UniProt P48775)	6.25
O=C1c2ccccc2C(=O)c2c1nnn2Cc1ccc(Br)cc1	Tryptophan 2,3-dioxygenase (Homo sapiens, UniProt P48775)	5.80
CCN(CC)C(=O)c1cccc(Cn2nnc3c2C(=O)c2ccccc2C3=O)c1	Tryptophan 2,3-dioxygenase (Homo sapiens, UniProt P48775)	7.05

----------
Target: Indoleamine 2,3-dioxygenase 1 (Homo sapiens)
Assay: Inhibition of recombinant human IDO expressed in Escherichia coli incubated for 1 hr measured by fluorescence assay
// boundary case: IC50 equal to 2000 nM maps to 0; strictly smaller maps to 1

molecule-smiles	label-class
Cc1ccc(Cn2nnc3c2C(=O)c2ccccc2C3=O)cc1	1
CC(=O)N1CCN(C(=O)c2ccc(Cn3nnc4c3C(=O)c3ccccc3C4=O)cc2)CC1	1
CCN(CC)C(=O)Cc1ccc(Cn2nnc3c2C(=O)c2ccccc2C3=O)cc1	1
O=C1c2ccccc2C(=O)c2c1nnn2Cc1ccc(F)cc1	0
O=C1c2ccccc2C(=O)c2c1nnn2Cc1cccc(Br)c1	0
O=C1c2ccccc2C(=O)c2c1nnn2Cc1ccc(Cl)cc1	0
CCN(CC)C(=O)c1cccc(Cn2nnc3c2C(=O)c2ccccc2C3=O)c1	1
O=C(O)c1ccc(Cn2nnc3c2C(=O)c2ccccc2C3=O)cc1	0
CC(=O)N1CCN(C(=O)c2cccc(Cn3nnc4c3C(=O)c3ccccc3C4=O)c2)CC1	1
CN1CCN(C(=O)c2cccc(Cn3nnc4c3C(=O)c3ccccc3C4=O)c2)CC1	1

----------
Quick list: pIC50 per entry.
Molecular target: Indoleamine 2,3-dioxygenase 1 (Homo sapiens, UniProt P14902)
Sequence (P14902 whole entry): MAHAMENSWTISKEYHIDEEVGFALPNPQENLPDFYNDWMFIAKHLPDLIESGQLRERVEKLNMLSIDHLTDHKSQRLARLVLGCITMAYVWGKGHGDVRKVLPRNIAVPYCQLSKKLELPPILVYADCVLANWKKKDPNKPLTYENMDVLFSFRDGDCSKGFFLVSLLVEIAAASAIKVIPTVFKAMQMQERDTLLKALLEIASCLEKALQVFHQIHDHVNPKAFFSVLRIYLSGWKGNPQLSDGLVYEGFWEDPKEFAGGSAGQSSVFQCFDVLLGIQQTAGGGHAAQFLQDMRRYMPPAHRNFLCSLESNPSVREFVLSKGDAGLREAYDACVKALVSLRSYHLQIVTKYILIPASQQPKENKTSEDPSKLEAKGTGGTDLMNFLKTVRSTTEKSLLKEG
Assay: Inhibition of recombinant human IDO expressed in Escherichia coli incubated for 1 hr measured by fluorescence assay
pIC50: −log10 of the molar value.

molecule-smiles	experimental-system	qualifying-sign	pIC50
O=C(O)c1cccc(Cn2nnc3c2C(=O)c2ccccc2C3=O)c1	Indoleamine 2,3-dioxygenase 1 (Homo sapiens, UniProt P14902)	=	5.91
O=C1c2ccccc2C(=O)c2c1nnn2Cc1ccc(Br)cc1	Indoleamine 2,3-dioxygenase 1 (Homo sapiens, UniProt P14902)	<	5.00
CCN(CC)C(=O)c1ccc(Cn2nnc3c2C(=O)c2ccccc2C3=O)cc1	Indoleamine 2,3-dioxygenase 1 (Homo sapiens, UniProt P14902)	=	5.71
CN1CCN(C(=O)c2ccc(Cn3nnc4c3C(=O)c3ccccc3C4=O)cc2)CC1	Indoleamine 2,3-dioxygenase 1 (Homo sapiens, UniProt P14902)	=	5.68
O=C1c2ccccc2C(=O)c2c1nnn2Cc1cccc(Cl)c1	Indoleamine 2,3-dioxygenase 1 (Homo sapiens, UniProt P14902)	=	6.12
O=C1c2ccccc2C(=O)c2c1nnn2Cc1cccc(C(=O)N2CCOCC2)c1	Indoleamine 2,3-dioxygenase 1 (Homo sapiens, UniProt P14902)	=	6.03
COC1CCN(C(=O)c2ccc(Cn3nnc4c3C(=O)c3ccccc3C4=O)cc2)CC1	Indoleamine 2,3-dioxygenase 1 (Homo sapiens, UniProt P14902)	=	5.80
Cc1cccc(Cn2nnc3c2C(=O)c2ccccc2C3=O)c1	Indoleamine 2,3-dioxygenase 1 (Homo sapiens, UniProt P14902)	=	5.34
O=C1c2ccccc2C(=O)c2c1nnn2Cc1ccc(C(=O)N2CCOCC2)cc1	Indoleamine 2,3-dioxygenase 1 (Homo sapiens, UniProt P14902)	=	6.01
Cc1ccccc1Cn1nnc2c1C(=O)c1ccccc1C2=O	Indoleamine 2,3-dioxygenase 1 (Homo sapiens, UniProt P14902)	=	6.09

----------
Listed below: IC50 values for each entry.
Assay: Inhibition of human muscle mitochondrial complex 1 by spectrophotometric assay

molecule-smiles	IC50
Cc1ccccc1Cn1nnc2c1C(=O)c1ccccc1C2=O	> 10 µM
CN1CCN(C(=O)c2cccc(Cn3nnc4c3C(=O)c3ccccc3C4=O)c2)CC1	> 10 µM

----------
Target sequence: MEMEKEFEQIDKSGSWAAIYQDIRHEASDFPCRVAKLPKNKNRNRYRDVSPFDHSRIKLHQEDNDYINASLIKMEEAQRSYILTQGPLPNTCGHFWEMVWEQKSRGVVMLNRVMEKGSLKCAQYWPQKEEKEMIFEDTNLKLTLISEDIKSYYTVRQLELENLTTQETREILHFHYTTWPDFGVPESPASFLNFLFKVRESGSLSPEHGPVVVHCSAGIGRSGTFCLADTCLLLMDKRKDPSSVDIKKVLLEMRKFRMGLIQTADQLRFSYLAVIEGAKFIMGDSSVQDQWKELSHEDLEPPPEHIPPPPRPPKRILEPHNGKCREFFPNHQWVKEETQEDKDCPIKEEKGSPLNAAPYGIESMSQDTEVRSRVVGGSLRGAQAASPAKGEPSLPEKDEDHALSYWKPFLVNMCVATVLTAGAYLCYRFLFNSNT
parameter-measured: IC50

molecule-smiles	test-result
CN1CCN(C(=O)c2cccc(Cn3nnc4c3C(=O)c3ccccc3C4=O)c2)CC1	> 10 µM

----------
Molecular target: Receptor-type tyrosine-protein kinase FLT3 (Homo sapiens, UniProt P36888)
Sequence (P36888 whole entry): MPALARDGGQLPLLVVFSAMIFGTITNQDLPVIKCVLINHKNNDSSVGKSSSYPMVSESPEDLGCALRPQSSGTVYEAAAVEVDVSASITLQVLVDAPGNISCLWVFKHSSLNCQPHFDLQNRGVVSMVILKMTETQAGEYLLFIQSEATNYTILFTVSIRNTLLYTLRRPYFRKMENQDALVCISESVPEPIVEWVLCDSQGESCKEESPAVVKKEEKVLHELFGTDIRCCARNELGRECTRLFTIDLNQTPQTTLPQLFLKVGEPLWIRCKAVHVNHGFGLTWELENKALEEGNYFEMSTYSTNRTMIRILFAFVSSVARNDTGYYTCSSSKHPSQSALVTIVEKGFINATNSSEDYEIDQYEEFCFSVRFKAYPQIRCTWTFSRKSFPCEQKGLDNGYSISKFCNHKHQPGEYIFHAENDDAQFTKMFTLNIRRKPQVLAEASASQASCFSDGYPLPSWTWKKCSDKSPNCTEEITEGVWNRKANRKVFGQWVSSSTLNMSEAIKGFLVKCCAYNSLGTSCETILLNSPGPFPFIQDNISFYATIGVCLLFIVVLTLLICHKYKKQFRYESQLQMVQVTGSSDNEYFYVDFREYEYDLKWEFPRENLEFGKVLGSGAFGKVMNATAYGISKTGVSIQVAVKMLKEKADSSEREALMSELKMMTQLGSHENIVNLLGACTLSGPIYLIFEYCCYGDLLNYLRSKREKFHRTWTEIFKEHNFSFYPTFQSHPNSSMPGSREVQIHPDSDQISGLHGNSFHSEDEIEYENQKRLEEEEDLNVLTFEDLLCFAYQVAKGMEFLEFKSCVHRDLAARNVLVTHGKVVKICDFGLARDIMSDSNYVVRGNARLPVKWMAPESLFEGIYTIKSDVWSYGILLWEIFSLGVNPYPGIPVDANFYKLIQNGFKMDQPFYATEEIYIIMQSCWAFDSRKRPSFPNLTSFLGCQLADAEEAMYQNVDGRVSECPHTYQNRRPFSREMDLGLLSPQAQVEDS

molecule-smiles	IC50
CN1CCN(C(=O)c2cccc(Cn3nnc4c3C(=O)c3ccccc3C4=O)c2)CC1	> 10 µM

----------
Catalogue of compounds with associated log10 IC50
Biological target: UniProtKB P48775
Assay: Inhibition of recombinant human TDO expressed in Escherichia coli incubated for 1 hr measured by absorbance assay
parameter-measured: log10 IC50 (log10 of the value in µM)

molecule-smiles	parameter-measured	test-result
O=C1c2ccccc2C(=O)c2c1nnn2Cc1ccc(Cl)cc1	log10 IC50	0.81
O=C(O)c1cccc(Cn2nnc3c2C(=O)c2ccccc2C3=O)c1	log10 IC50	-0.78
Cc1cccc(Cn2nnc3c2C(=O)c2ccccc2C3=O)c1	log10 IC50	0.24
CC(=O)N1CCN(C(=O)c2cccc(Cn3nnc4c3C(=O)c3ccccc3C4=O)c2)CC1	log10 IC50	-1.23
O=C1c2ccccc2C(=O)c2c1nnn2Cc1cccc(Cl)c1	log10 IC50	-0.15
O=C(O)c1ccc(Cn2nnc3c2C(=O)c2ccccc2C3=O)cc1	log10 IC50	-0.51
